Provenance of the data: ChEMBL document CHEMBL6078658

System under test: GABA-A receptor; alpha-1/beta-3/gamma-2 (Homo sapiens, UniProt P14867+P18507+P28472)
Sequence (P14867 whole entry, one chain of several): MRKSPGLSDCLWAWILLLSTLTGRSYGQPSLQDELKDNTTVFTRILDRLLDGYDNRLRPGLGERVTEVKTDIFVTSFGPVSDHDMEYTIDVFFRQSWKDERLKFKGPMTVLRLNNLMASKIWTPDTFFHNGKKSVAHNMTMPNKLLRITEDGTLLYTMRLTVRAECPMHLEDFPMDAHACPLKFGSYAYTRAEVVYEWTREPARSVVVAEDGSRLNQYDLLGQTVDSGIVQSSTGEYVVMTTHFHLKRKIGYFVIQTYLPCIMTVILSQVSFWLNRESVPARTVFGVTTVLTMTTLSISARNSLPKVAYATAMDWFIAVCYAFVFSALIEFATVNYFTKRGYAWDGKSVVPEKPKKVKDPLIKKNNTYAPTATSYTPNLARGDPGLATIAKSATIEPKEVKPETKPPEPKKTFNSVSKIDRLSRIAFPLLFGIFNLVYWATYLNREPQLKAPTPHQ
Method summary: Displacement of [3H]flumazenil from human recombinant alpha1-beta3-gamma2 GABAA receptors expressed in mouse LTK- cells incubated for 1 hr by liquid scintillation counter analysis
pKi: −log10 of the molar value.
Form field: pKi (one value per entry).
Reported property: pKi

{"Compound smiles": "CCOC(=O)c1ncn2c1c(C)c(C(=O)NCCCCCCCCNC(=O)OC(C)(C)C)c1ccccc12", "Reported property": "pKi", "Endpoint result": 7.41}
{"Compound smiles": "CCOC(=O)c1ncn2c1c(C)c(C(=O)NCCCCCCNC(=O)OC(C)(C)C)c1ccccc12", "Reported property": "pKi", "Endpoint result": 8.00}
{"Compound smiles": "CCOC(=O)c1ncn2c1c(C)c(C(=O)NCCCCCCNC(=O)c1c(C)c3c(C(=O)OCC)ncn3c3ccccc13)c1ccccc12", "Reported property": "pKi", "Endpoint result": 7.13}
{"Compound smiles": "CCOC(=O)c1ncn2c1c(C)c(C(=O)NCCCCCCCCNC(=O)c1c(C)c3c(C(=O)OCC)ncn3c3ccccc13)c1ccccc12", "Reported property": "pKi", "Endpoint result": 7.19}
{"Compound smiles": "CCOC(=O)c1ncn2c1c(C)c(C(=O)NCCOCCOCCOCCOCCOCCOCCOCCNC(=O)OC(C)(C)C)c1ccccc12", "Reported property": "pKi", "Endpoint result": 7.38}
{"Compound smiles": "CCOC(=O)c1ncn2c1c(C)c(C(=O)NCCOCCOCCNC(=O)c1c(C)c3c(C(=O)OCC)ncn3c3ccccc13)c1ccccc12", "Reported property": "pKi", "Endpoint result": 6.89}
{"Compound smiles": "CCOC(=O)c1ncn2c1c(C)c(C(=O)NCCCCCCCNC(=O)OC(C)(C)C)c1ccccc12", "Reported property": "pKi", "Endpoint result": 7.51}
{"Compound smiles": "CCOC(=O)c1ncn2c1c(C)c(C(=O)NCCCCCCCNC(=O)c1c(C)c3c(C(=O)OCC)ncn3c3ccccc13)c1ccccc12", "Reported property": "pKi", "Endpoint result": 7.13}
{"Compound smiles": "CCOC(=O)c1ncn2c1c(C)c(C(=O)NCCOCCOCCNC(=O)OC(C)(C)C)c1ccccc12", "Reported property": "pKi", "Endpoint result": 6.21}
{"Compound smiles": "CCOC(=O)c1ncn2c1c(C)c(C(=O)NCCOCCOCCOCCOCCOCCOCCOCCNC(=O)c1c(C)c3c(C(=O)OCC)ncn3c3ccccc13)c1ccccc12", "Reported property": "pKi", "Endpoint result": 6.61}

====

System under test: GABA-A receptor; alpha-2/beta-3/gamma-2 (Homo sapiens, UniProt P18507+P28472+P47869)
Sequence (P18507 whole entry): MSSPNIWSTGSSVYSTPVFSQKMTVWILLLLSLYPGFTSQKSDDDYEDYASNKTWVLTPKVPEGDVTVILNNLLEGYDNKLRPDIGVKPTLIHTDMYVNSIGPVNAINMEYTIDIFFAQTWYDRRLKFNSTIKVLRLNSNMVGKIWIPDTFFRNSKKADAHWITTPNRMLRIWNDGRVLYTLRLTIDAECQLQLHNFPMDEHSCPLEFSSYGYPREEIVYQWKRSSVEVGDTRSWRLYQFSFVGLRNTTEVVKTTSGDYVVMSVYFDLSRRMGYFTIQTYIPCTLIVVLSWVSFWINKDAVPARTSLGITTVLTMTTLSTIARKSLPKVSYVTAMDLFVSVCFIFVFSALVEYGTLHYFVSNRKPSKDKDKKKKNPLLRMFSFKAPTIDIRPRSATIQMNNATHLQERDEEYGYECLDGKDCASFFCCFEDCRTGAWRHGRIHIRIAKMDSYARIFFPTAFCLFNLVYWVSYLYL
Sequence (P28472 whole entry): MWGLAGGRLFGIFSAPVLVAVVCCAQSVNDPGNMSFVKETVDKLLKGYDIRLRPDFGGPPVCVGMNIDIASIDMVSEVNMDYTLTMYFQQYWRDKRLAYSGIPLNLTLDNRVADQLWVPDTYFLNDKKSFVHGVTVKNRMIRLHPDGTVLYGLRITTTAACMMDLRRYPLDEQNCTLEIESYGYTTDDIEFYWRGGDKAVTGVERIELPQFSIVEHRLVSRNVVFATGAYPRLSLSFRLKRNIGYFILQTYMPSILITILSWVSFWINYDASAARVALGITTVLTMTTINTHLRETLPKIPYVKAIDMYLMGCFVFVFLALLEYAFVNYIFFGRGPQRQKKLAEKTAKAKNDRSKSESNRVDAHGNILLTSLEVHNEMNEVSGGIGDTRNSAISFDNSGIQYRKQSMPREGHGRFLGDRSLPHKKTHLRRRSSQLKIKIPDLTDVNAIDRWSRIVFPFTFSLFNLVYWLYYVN
Sequence (P47869 whole entry): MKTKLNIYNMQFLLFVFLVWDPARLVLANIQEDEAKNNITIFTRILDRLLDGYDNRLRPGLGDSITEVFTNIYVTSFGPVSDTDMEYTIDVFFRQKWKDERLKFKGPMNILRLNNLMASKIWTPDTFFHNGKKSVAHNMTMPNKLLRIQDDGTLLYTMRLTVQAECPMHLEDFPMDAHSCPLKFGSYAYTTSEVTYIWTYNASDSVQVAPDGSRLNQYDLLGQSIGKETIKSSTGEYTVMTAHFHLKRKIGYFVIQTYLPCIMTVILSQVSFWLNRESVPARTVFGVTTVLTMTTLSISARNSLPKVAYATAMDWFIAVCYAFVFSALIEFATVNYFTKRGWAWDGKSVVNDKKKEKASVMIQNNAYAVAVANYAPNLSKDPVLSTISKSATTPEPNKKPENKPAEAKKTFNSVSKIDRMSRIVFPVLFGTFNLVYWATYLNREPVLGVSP
Method summary: Displacement of [3H]flumazenil from human recombinant alpha2-beta3-gamma2 GABAA receptors expressed in mouse LTK- cells incubated for 1 hr by liquid scintillation counter analysis
pKi: −log10 of the molar value.
Parameter threshold = 7. Response is 1 when pKi meets or exceeds it, else -1.

{"Compound smiles": "CCOC(=O)c1ncn2c1c(C)c(C(=O)NCCCCCCCCNC(=O)c1c(C)c3c(C(=O)OCC)ncn3c3ccccc13)c1ccccc12", "System under test": "GABA-A receptor; alpha-2/beta-3/gamma-2 (Homo sapiens, UniProt P18507+P28472+P47869)", "Assigned label": 1}
{"Compound smiles": "CCOC(=O)c1ncn2c1c(C)c(C(=O)NCCCCCCCNC(=O)OC(C)(C)C)c1ccccc12", "System under test": "GABA-A receptor; alpha-2/beta-3/gamma-2 (Homo sapiens, UniProt P18507+P28472+P47869)", "Assigned label": 1}
{"Compound smiles": "CCOC(=O)c1ncn2c1c(C)c(C(=O)NCCCCCCNC(=O)OC(C)(C)C)c1ccccc12", "System under test": "GABA-A receptor; alpha-2/beta-3/gamma-2 (Homo sapiens, UniProt P18507+P28472+P47869)", "Assigned label": 1}
{"Compound smiles": "CCOC(=O)c1ncn2c1c(C)c(C(=O)NCCCCCCNC(=O)c1c(C)c3c(C(=O)OCC)ncn3c3ccccc13)c1ccccc12", "System under test": "GABA-A receptor; alpha-2/beta-3/gamma-2 (Homo sapiens, UniProt P18507+P28472+P47869)", "Assigned label": 1}
{"Compound smiles": "CCOC(=O)c1ncn2c1c(C)c(C(=O)NCCCCCCCCNC(=O)OC(C)(C)C)c1ccccc12", "System under test": "GABA-A receptor; alpha-2/beta-3/gamma-2 (Homo sapiens, UniProt P18507+P28472+P47869)", "Assigned label": 1}
{"Compound smiles": "CCOC(=O)c1ncn2c1c(C)c(C(=O)NCCOCCOCCNC(=O)OC(C)(C)C)c1ccccc12", "System under test": "GABA-A receptor; alpha-2/beta-3/gamma-2 (Homo sapiens, UniProt P18507+P28472+P47869)", "Assigned label": -1}
{"Compound smiles": "CCOC(=O)c1ncn2c1c(C)c(C(=O)NCCOCCOCCOCCOCCOCCOCCOCCNC(=O)c1c(C)c3c(C(=O)OCC)ncn3c3ccccc13)c1ccccc12", "System under test": "GABA-A receptor; alpha-2/beta-3/gamma-2 (Homo sapiens, UniProt P18507+P28472+P47869)", "Assigned label": -1}
